assay: LNP hydrodynamic diameter and polydispersity by DLS (Example 1 LNPs); format: physicochemical; conditions: LNPs prepared according to Example 1, total lipid to NA mass ratio 11.7
Field: label. Allowed values: MET (Mean PDI < 10%) or NOT MET (Mean PDI >= 10%).

INSERT INTO measurements (compound, group) VALUES
  ('CC/C=C\CCCCOC(CCC(=O)OCCCCCCN(CCO)CCN(CCCCCCCCCOC(=O)C(CCCC)CCCCCC)CCCCCCCCCOC(=O)C(CCCC)CCCCCC)OCCCC/C=C\CC (centres unmarked)', 'MET'),
  ('CC/C=C\CCCCOC(CCC(=O)OCCCCCCN(CCCCCCOC(=O)CCC(OCCCC/C=C\CC)OCCCC/C=C\CC)CCN(CCO)CCCCCCCC(=O)OCCCCCCCCC)OCCCC/C=C\CC', 'NOT MET'),
  ('CC/C=C\CCCCOC(CCC(=O)OCCCCCCCN(CCCCCCCOC(=O)CCC(OCCCC/C=C\CC)OCCCC/C=C\CC)CCN(CCO)CCCCCCCC(=O)OCCCCCCCCC)OCCCC/C=C\CC', 'NOT MET'),
  ('CC/C=C\CCCCOC(CCC(=O)OCCCCCCCN(CCO)CCCN(CCCCCCCOC(=O)CCC(OCCCC/C=C\CC)OCCCC/C=C\CC)CCCCCCCOC(=O)CCC(OCCCC/C=C\CC)OCCCC/C=C\CC)OCCCC/C=C\CC', 'NOT MET'),
  ('CC/C=C\CCCCOC(CCC(=O)OCCCCCCCN(CCCO)CCN(CCCCCCCOC(=O)CCC(OCCCC/C=C\CC)OCCCC/C=C\CC)CCCCCCCOC(=O)CCC(OCCCC/C=C\CC)OCCCC/C=C\CC)OCCCC/C=C\CC', 'NOT MET');
